# Tested on: MDA-MB-435
# TEST PROTOCOL: Cytotoxicity against human MDA-MB-435 cells after 4 hrs by MTT assay
# Assay type: functional, cell-based
# PARTICULARS: MDA-MB-435, 4 h

SMILES TEXT	IC50
NCCNC(=O)C(CN)(Cc1ccc2ccccc2c1)Cc1ccc2ccccc2c1	1020 nM

* * *

# System: HL-60
# TEST PROTOCOL: Cytotoxicity against human HL60 cells after 4 hrs by MTT assay
# Type: functional, cell-based
# PARTICULARS: HL-60, 4 h
pIC50: −log10 of the molar value.
ASSAY METRIC: pIC50

SMILES TEXT	ASSAY METRIC	ASSAY RESULT
NCCNC(=O)C(CN)(Cc1ccc2ccccc2c1)Cc1ccc2ccccc2c1	pIC50	6.32
